Listed here: items and their measured GI50.
system: SN12C renal; assay: NCI tumour cell line growth inhibition, 48 h

>  <QUERY_SMILES>
CN(/N=N/c1nc(OCc2ccccc2)c2[nH]cnc2n1)C(=O)N(C)/N=N/c1nc(OCc2ccccc2)c2[nH]cnc2n1

>  <GI50>
56.6 µM

$$$$
>  <QUERY_SMILES>
N#CC(C#N)=CN1CCN(C(=O)c2ccccc2)C1=S

>  <GI50>
24.6 µM

$$$$
>  <QUERY_SMILES>
CCOC(=O)C(Cc1c[nH]c2cc([N+](=O)[O-])ccc12)(NC(C)=O)C(=O)OCC

>  <GI50>
401 µM

$$$$
>  <QUERY_SMILES>
Cc1cc(S(=O)(=O)NC#N)c(S/C(=N\Nc2ccc([N+](=O)[O-])cc2)c2ccccc2)cc1Cl

>  <GI50>
20.9 µM

$$$$
>  <QUERY_SMILES>
CCc1ccc(CCC(=O)Nc2ncc(Cc3ccccc3)s2)o1

>  <GI50>
4.42 µM

$$$$
>  <QUERY_SMILES>
c1cncc(CNc2ccccc2-c2nnc(Nc3ccc4c(c3)OCCO4)o2)c1

>  <GI50>
0.482 µM

$$$$
>  <QUERY_SMILES>
Cc1cc(-c2nc3ccc(O)cc3s2)ccc1N

>  <GI50>
39 µM

$$$$
>  <QUERY_SMILES>
NC(=NC1CCCCCC1)c1ccc(N2CCN(c3ccc(C(N)=NC4CCCCCC4)cc3)CC2)cc1

>  <GI50>
2.33 µM

$$$$
>  <QUERY_SMILES>
O=C(CNC(=O)c1cccc2ccccc12)Nc1ccccc1Oc1ccccc1

>  <GI50>
0.583 µM

$$$$
>  <QUERY_SMILES>
CN(C)CC#Cc1cccc(C(=O)c2cnn(-c3ccc(F)cc3)c2N)c1

>  <GI50>
> 25 µM

$$$$
>  <QUERY_SMILES>
Nc1ncc(-c2ccc(C(F)(F)F)cc2)c(NC2CCCCCC2)n1

>  <GI50>
29.4 µM

$$$$
>  <QUERY_SMILES>
O=C(N/N=C/c1ccc(O)cc1O)c1ccc(Nc2ccnc(C(F)(F)F)c2)cc1

>  <GI50>
24.4 µM

$$$$
>  <QUERY_SMILES>
CCCCC(=O)[O-].N.N.N.N.N.[Co+3].[O-][Cl+3]([O-])([O-])[O-]

>  <GI50>
> 100 µM

$$$$
>  <QUERY_SMILES>
Cc1ccc(NC2=C(Sc3ccc(Cl)cc3)C(=O)N(Cc3ccccc3)C2=O)cc1Cl

>  <GI50>
12.3 µM

$$$$

* * *

tested on: RPMI-8226 leukemia; assay: NCI tumour cell line growth inhibition, 48 h
The entries below come with measured GI50 values attached.

>  <QUERY_SMILES>
c1cncc(CNc2ccccc2-c2nnc(Nc3ccc4c(c3)OCCO4)o2)c1

>  <TESTED_ON>
RPMI-8226 leukemia

>  <GI50>
280 nM

$$$$
>  <QUERY_SMILES>
CC1(C)N=C(N)N=C(N)N1c1cccc(CCCCc2ccc(S(=O)(=O)F)cc2Cl)c1

>  <TESTED_ON>
RPMI-8226 leukemia

>  <GI50>
10800 nM

$$$$
>  <QUERY_SMILES>
O=C(Nc1ccncc1)C(=O)c1cn(S(=O)(=O)c2ccccc2F)c2ccccc12

>  <TESTED_ON>
RPMI-8226 leukemia

>  <GI50>
2540 nM

$$$$
>  <QUERY_SMILES>
CCOc1cc2ncc(C#N)c(Nc3ccc(F)c(Cl)c3)c2cc1NC(=O)/C=C/CN(C)C

>  <TESTED_ON>
RPMI-8226 leukemia

>  <GI50>
1040 nM

$$$$
>  <QUERY_SMILES>
c1ccc2[nH]c(-c3ccc(OCCCCCOc4ccc(-c5nc6ccccc6[nH]5)cc4)cc3)nc2c1

>  <TESTED_ON>
RPMI-8226 leukemia

>  <GI50>
2210 nM

$$$$
>  <QUERY_SMILES>
N#CC(C#N)=CN1CCN(C(=O)c2ccccc2)C1=S

>  <TESTED_ON>
RPMI-8226 leukemia

>  <GI50>
35300 nM

$$$$
>  <QUERY_SMILES>
CN(C)CC#Cc1cccc(C(=O)c2cnn(-c3ccc(F)cc3)c2N)c1

>  <TESTED_ON>
RPMI-8226 leukemia

>  <GI50>
> 25000 nM

$$$$

* * *

test system: SW-620 colon; assay: NCI tumour cell line growth inhibition, 48 h
MEASURED_ENDPOINT: TGI

>  <MOLECULE>
Cn1c2ccccc2n2c3ccccc3c(=S)c(C#N)c12

>  <MEASURED_ENDPOINT>
TGI

>  <RESULT>
> 100 µM

$$$$
>  <MOLECULE>
C=CCOc1ccc(C2c3c([nH][nH]c3=O)CC(C)(O)C2C(=O)OC)cc1OC (stereo not given)

>  <MEASURED_ENDPOINT>
TGI

>  <RESULT>
> 100 µM

$$$$
>  <MOLECULE>
CC(=O)O[C@@H]1CC(C)C2CC2C2=C(C(O)OC2O)[C@@H]1C(C)CCC=C(C)C (stereo not given in full)

>  <MEASURED_ENDPOINT>
TGI

>  <RESULT>
51.2 µM

$$$$
>  <MOLECULE>
COc1ccc(C(=O)/C=C/c2cc(C(=O)c3cc(OC)c(OC)c(OC)c3)ccc2OC)cc1

>  <MEASURED_ENDPOINT>
TGI

>  <RESULT>
> 100 µM

$$$$
>  <MOLECULE>
OCCCN(CCc1ccc(Cl)c(Cl)c1)CCN1CCCC1

>  <MEASURED_ENDPOINT>
TGI

>  <RESULT>
> 100 µM

$$$$
>  <MOLECULE>
CCO[C@H]1C[C@@H](c2ccccc2)[C@]2(C)C[C@H](C(=O)OC)ON2O1

>  <MEASURED_ENDPOINT>
TGI

>  <RESULT>
> 100 µM

$$$$
>  <MOLECULE>
Cc1[nH]n(-c2nc(O)c(C)c(=O)[nH]2)c(=O)c1CCO

>  <MEASURED_ENDPOINT>
TGI

>  <RESULT>
> 100 µM

$$$$
>  <MOLECULE>
COc1ccc(NC(C)=O)c(C(=O)CCNC(C)=O)c1

>  <MEASURED_ENDPOINT>
TGI

>  <RESULT>
> 100 µM

$$$$
>  <MOLECULE>
O=Cc1[nH]c2ccccc2c1Br

>  <MEASURED_ENDPOINT>
TGI

>  <RESULT>
> 100 µM

$$$$
>  <MOLECULE>
Cc1cc2c(cc1Cl)Sc1nnc(C)n1S2(=O)=O

>  <MEASURED_ENDPOINT>
TGI

>  <RESULT>
35 µM

$$$$
>  <MOLECULE>
CC(=O)Oc1cccc2c1C(=O)C(Br)(Br)CCC2

>  <MEASURED_ENDPOINT>
TGI

>  <RESULT>
9.13 µM

$$$$
>  <MOLECULE>
COc1ccc(S(=O)Cc2cc(OC)ccc2OC)cc1 (stereo not given)

>  <MEASURED_ENDPOINT>
TGI

>  <RESULT>
> 100 µM

$$$$
>  <MOLECULE>
Cn1c(=O)c2[nH]c(COCc3nc4c([nH]3)c(=O)n(C)c(=O)n4C)nc2n(C)c1=O

>  <MEASURED_ENDPOINT>
TGI

>  <RESULT>
> 100 µM

$$$$
>  <MOLECULE>
O=S(=O)(O)c1ccc(N=Nc2ccc(N=Nc3ccc(/C=C/c4ccc(N=[N+]([O-])c5ccc(/C=C/c6ccc(N=Nc7ccc(N=Nc8ccc(S(=O)(=O)O)cc8)c8ccccc78)cc6S(=O)(=O)O)c(S(=O)(=O)O)c5)cc4S(=O)(=O)O)c(S(=O)(=O)O)c3)c3ccccc23)cc1

>  <MEASURED_ENDPOINT>
TGI

>  <RESULT>
> 100 µM

$$$$
>  <MOLECULE>
Clc1cc(Cl)cc(N2N=C(c3cccc(Nc4ccncc4)c3)CC2c2ccc(Br)cc2)c1 (stereo not given)

>  <MEASURED_ENDPOINT>
TGI

>  <RESULT>
3.04 µM

$$$$
>  <MOLECULE>
Fc1ccc(-c2nnc3sc(-c4cccc(Cl)c4)nn23)cc1Cl

>  <MEASURED_ENDPOINT>
TGI

>  <RESULT>
> 100 µM

$$$$
>  <MOLECULE>
Cc1cc(-c2nc3ccc(O)cc3s2)ccc1N

>  <MEASURED_ENDPOINT>
TGI

>  <RESULT>
> 100 µM

$$$$
>  <MOLECULE>
Cc1ccnc2c1c(=O)c1ccccc1n2C

>  <MEASURED_ENDPOINT>
TGI

>  <RESULT>
> 100 µM

$$$$
>  <MOLECULE>
O=C(COC(=O)c1ccccc1)c1ccc(Br)cc1

>  <MEASURED_ENDPOINT>
TGI

>  <RESULT>
21.8 µM

$$$$
>  <MOLECULE>
COc1cc(/C=C2\CCc3cc(OC)c(OC)cc3C2=O)cc(OC)c1

>  <MEASURED_ENDPOINT>
TGI

>  <RESULT>
> 100 µM

$$$$
